// data source = PubChem BioAssay (EPA / NIEHS)

- Read-out: Interferon-gamma inducible Protein 10 (IP10), CXCL10 (gene 3627)
- MEASUREMENT_DESCRIPTION: BSK_BE3C_IP10: BioMAP Diversity Plus: BE3C Assay for Interferon-gamma inducible Protein 10 (IP10) Biomarker Activity (AID 2283034)
- MEASUREMENT_PARAMETERS: primary human bronchial epithelial cells; actives raise or lower the signal
The source made the active and inactive calls. The calls were made as follows: active = hit-call score of the fitted dose curve at least 0.9, where 1 is the maximum; inactive = score below 0.9.
Write down one outcome, taken from active, inactive

Answered cases to consult:
| COMPOUND | GROUP |
| --- | --- |
| CSC1=N[C@@](C)(c2ccccc2)C(=O)N1Nc1ccccc1 | inactive |
| COP(=O)(OC)OC(Br)C(Cl)(Cl)Br (configuration not stated) | active |
| CCOC(=O)CC(SP(=O)(OC)OC)C(=O)OCC (configuration not stated) | inactive |
| C=C(C)[C@H]1Cc2c(ccc3c2O[C@@H]2COc4cc(OC)c(OC)cc4[C@@H]2C3=O)O1 | active |
| Cc1ccn2nc(S(=O)(=O)Nc3c(F)cccc3F)nc2n1 | inactive |

For this compound, state the assay outcome: `COP(=O)(OC)SCn1c(=O)oc2cc(Cl)cnc21`
active

For this compound, state the assay outcome: `CCOP(=S)(OCC)Oc1ccc([N+](=O)[O-])cc1`
inactive

For this compound, state the assay outcome: `CCCCOC(=O)c1ccccc1C(=O)O`
inactive
